Assay: Stability to Phase I metabolism in rat S9 liver fraction
Assay type: in vitro ADME
Settings: after 90 min, 37° C.
Procedure: Test compounds were incubated in rat and human liver S9 fraction at 37° C. up to 90 minutes in order to evaluate their stability to Phase I metabolism by hepatic enzymes. […] The reaction was stopped placing samples on ice bath and adding acidified acetonitrile. […] The percentages of the amount remaining at the various incubation times with respect to the initial amount were calculated. The intrinsic clearance was also calculated.
MEASURED_PROPERTY: residual percentage in rat S9 fraction (%)

* CCN(CC)S(=O)(=O)c1cccc(-c2nnc(Sc3ccc(C(=O)NO)cc3)n2C)c1 [comp. 66] | 54
* Cn1c(Sc2c(F)cc(C(=O)NO)cc2F)nnc1-c1ccccn1 [comp. 14] | 88
* O=C(NO)c1ccc(Cc2nnc(-c3ccc(F)cc3F)o2)cc1 [comp. 58] | 15

A: Nn1c(Sc2ccc(C(=O)NO)cc2)nnc1-c1ccc(OC(F)F)cc1 [comp. 28]
B: Cc1ccsc1-c1nnn(Cc2ccc(C(=O)NO)cc2)n1 [comp. 39]
Query :: Between item A and item B , which reported residual percentage in rat S9 fraction is smaller? Answer format: the label of the selected item.
Result :: B

A: Cn1c(Sc2c(F)cc(C(=O)NO)cc2F)nnc1-c1ccc(CCN2CCCC2)nc1 [comp. 210]
B: O=C(NO)c1cc(F)c(Sc2nnc(-c3cncc(Br)c3)s2)c(F)c1 [compound 196]
Query :: Sort A and B by residual percentage in rat S9 fraction descending and give the first. // caller expects the label of the chosen entry
Result :: A

a: Cc1nc(Sc2ccc(C(=O)NO)cc2)nn1-c1ccc(Cl)cc1Cl [comp. 62]
b: COc1ccc(-c2nnn(Cc3ccc(C(=O)NO)cc3)n2)cc1OCc1ccccc1 [comp. 70]
Query :: Please compare: a and b . Report which one has the smaller residual percentage in rat S9 fraction value. Indicate your choice by writing its label.
Result :: b
(b: 18%, a: 55%)

---

Molecular target: recombinant human HDAC6 (Homo sapiens, UniProt Q9UBN7)
Sequence (Q9UBN7 1-1215): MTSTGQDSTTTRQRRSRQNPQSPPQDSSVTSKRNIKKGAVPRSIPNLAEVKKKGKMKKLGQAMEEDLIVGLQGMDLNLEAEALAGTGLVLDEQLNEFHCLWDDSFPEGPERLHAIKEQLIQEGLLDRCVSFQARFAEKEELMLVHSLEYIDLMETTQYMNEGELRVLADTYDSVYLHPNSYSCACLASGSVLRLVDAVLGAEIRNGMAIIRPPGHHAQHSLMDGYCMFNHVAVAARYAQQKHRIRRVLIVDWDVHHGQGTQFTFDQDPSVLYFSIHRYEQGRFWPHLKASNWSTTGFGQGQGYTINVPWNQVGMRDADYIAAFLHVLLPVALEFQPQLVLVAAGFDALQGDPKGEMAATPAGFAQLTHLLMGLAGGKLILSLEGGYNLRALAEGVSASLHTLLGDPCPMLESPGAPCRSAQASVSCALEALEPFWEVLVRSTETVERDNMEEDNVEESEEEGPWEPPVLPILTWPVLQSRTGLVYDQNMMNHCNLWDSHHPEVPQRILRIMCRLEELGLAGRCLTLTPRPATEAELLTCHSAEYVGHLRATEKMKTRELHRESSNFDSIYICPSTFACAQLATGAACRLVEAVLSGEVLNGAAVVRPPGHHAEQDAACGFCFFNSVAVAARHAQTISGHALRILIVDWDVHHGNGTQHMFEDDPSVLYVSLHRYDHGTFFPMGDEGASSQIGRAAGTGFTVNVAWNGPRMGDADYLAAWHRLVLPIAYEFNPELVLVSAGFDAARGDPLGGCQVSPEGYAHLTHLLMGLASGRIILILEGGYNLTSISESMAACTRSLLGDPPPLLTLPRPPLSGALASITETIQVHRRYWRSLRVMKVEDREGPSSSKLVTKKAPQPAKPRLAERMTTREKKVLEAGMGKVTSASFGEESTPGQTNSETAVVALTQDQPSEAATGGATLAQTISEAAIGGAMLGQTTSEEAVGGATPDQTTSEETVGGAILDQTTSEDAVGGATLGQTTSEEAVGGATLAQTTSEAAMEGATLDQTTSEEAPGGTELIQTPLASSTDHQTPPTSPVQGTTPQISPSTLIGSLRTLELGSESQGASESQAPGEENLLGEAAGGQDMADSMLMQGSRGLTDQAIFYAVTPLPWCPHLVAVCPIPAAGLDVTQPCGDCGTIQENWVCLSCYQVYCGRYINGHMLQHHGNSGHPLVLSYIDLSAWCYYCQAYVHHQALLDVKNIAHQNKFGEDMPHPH
Assay: Enzymatic screening on recombinant human HDAC6
Type: biochemical
Conditions: Table 2; read-out: HDAC6 IC50
pIC50: −log10 of the molar value.
MEASURED_PROPERTY: pIC50

The following compounds have reported results that may help.
• Cn1c(Sc2c(F)cc(C(=O)NO)cc2F)nnc1C1(c2ccccc2)CCC1 [comp. 101] = 7.74
• Cn1c(Sc2c(F)cc(C(=O)NO)cc2F)nnc1C(C)(C)c1ccccc1 [comp. 4] = 7.70
• Cn1c(Sc2c(F)cc(C(=O)NO)cc2F)nnc1-c1coc(CN2CCOCC2)c1 [comp. 203] = 7.85
• Cn1c(Sc2c(F)cc(C(=O)NO)cc2F)nnc1-c1nccc2ccccc12 [comp. 121] = 7.92
• O=C(NO)c1cc(F)c(Cc2noc(-c3cncc(N4CC5(COC5)C4)c3)n2)c(F)c1 [compound 201] = 7.80

1: COc1ccc(Cc2nnc(Cc3ccc(C(=O)NO)cc3)o2)cc1OC [comp. 45]
2: O=C(NO)c1cc(F)c(Sc2nnc(-c3ccc(F)cc3)n2CCN2CCOCC2)c(F)c1 [comp. 138]
Query :: Looking at 1 and 2 , which one comes out lower in pIC50 terms? Answer by stating the label of the chosen item.
Result :: 1

I: O=C(NO)c1ccc(Nc2nnc(-c3cccc(S(=O)(=O)N4CCCC4)c3)o2)cc1 [comp. 63]
II: NCc1ccc(-c2nnnn2Cc2c(F)cc(C(=O)NO)cc2F)cc1 [comp. 176]
Query :: So which one has the bigger pIC50 here, I or II ? To answer, give the label that identifies your chosen option.
Result :: II
(II: 7.26, I: 6.17)
